assay-remarks: Inhibitory constant against SARS-CoV 3CL protease catalyzed cleavage of fluorogenic peptide Dabcyl-KTSAVLQSGFRKME-Edans
*1 amine or outer side, *2 acyl side, *3 side chain or, on linkers, in order; H or OH if unused. Where a SMILES comes first, the peptide text is derived from it. [ ]: non-standard residue; d: D form. The star is where a group is joined. ξ: configuration not given here. NH(2-Cl-4-NO2-phenyl) = O=[N+]([O-])c1ccc(N*)c(Cl)c1; Thr(3ξ) = CC(O)[C@H](N)C(=O)O; Cbz = O=C(OCc1ccccc1)*; CO = O=C([*:1])[*:2]; X1 = CC1CCN(*)O1
Each entry below carries its recorded pKi.
Scale: pKi equals -log10([C]), with [C] in mol/L.

Reference set, count: 6
[
  {
    "molecule": "CC(C)[C@H](NC(=O)c1cccs1)C(=O)N[C@@H](Cc1ccccc1)C(=O)N[C@@H](Cc1ccccc1)C(=O)Nc1ccc([N+](=O)[O-])cc1Cl",
    "pKi": 5.37
  },
  {
    "molecule": "CC(C)[C@H](NC(=O)OCc1ccccc1)C(=O)N[C@@H](Cc1ccccc1)C(=O)N[C@H](C(=O)N[C@@H](Cc1ccccc1)C(=O)Nc1ccc([N+](=O)[O-])cc1Cl)C(C)O (some centres not stated) (Cbz-VF[Thr(3ξ)]F-{NH(2-Cl-4-NO2-phenyl)})",
    "pKi": 5.82
  },
  {
    "molecule": "CN(C)c1ccc(C(=O)N[C@@H](Cc2ccccc2)C(=O)Nc2ccc([N+](=O)[O-])cc2Cl)cc1",
    "pKi": 7.52
  },
  {
    "molecule": "CC1CCN(C(=O)N[C@H](C(=O)N[C@@H](Cc2ccccc2)C(=O)N[C@@H](Cc2ccccc2)C(=O)Nc2ccc([N+](=O)[O-])cc2Cl)C(C)C)O1 (some centres not stated)",
    "pKi": 5.54
  },
  {
    "molecule": "CC(C)C[C@H](NC(=O)[C@@H](NC(=O)c1cccs1)C(C)C)C(=O)N[C@@H](Cc1ccccc1)C(=O)Nc1ccc([N+](=O)[O-])cc1Cl",
    "pKi": 5.64
  },
  {
    "molecule": "CC1CCN(C(=O)N[C@H](C(=O)N[C@@H](Cc2ccccc2)C(=O)N[C@H](C(=O)N[C@@H](Cc2ccccc2)C(=O)Nc2ccc([N+](=O)[O-])cc2Cl)C(C)O)C(C)C)O1 (some centres not stated) ({X1-CO}-VF[Thr(3ξ)]F-{NH(2-Cl-4-NO2-phenyl)})",
    "pKi": 5.79
  }
]

Moving on to another molecule below.
Challenge: // query pKi value for entry O=C(C[C@H](O)C(=O)N[C@@H](Cc1ccccc1)C(=O)Nc1ccc([N+](=O)[O-])cc1Cl)NC(Cc1ccccc1)C(=O)Nc1ccc([N+](=O)[O-])cc1Cl (some centres not stated)
Response given: 5.51
